READOUT: IC50 (nM)
Answer format: numeric, nM implied, no suffix.

Entry COc1ccc2c(c1)C(=NNc1ncnc3[nH]ccc13)C(=O)N2 under Her2 (Homo sapiens, UniProt P04626) had IC50 of 157

All values here come from paper PMC10205775.
